Origin of measurements: a collection of fitness landscapes (doi:10.1016/j.celrep.2020.107928)

B1: Caulobacter ParB omega fusion; a variant is named by its letters at X, in order, B8GW30 (parent)
chain: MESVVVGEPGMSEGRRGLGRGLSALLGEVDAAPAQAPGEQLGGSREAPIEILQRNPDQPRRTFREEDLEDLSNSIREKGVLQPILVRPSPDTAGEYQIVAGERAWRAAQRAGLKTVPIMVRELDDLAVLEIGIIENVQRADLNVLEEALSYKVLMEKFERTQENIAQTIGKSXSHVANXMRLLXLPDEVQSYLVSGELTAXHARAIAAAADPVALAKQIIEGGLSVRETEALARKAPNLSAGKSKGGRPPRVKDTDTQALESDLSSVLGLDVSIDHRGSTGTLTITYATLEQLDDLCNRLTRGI

Variants of: B1
Experiment: one-hybrid fitness for binding parS DNA (scaled: cognate 1, non-cognate 0); higher = stronger binding
Settings: with parS DNA site
The full ranking holds about 81,000 sequences; the median of “one-hybrid fitness for binding parS DNA” is about -0.17, and the highest 2% start at about 0.51. For the sample, the highest values were picked, then their nearest neighbours and some sequences at random.
parameter: one-hybrid fitness for binding parS DNA

Reference set, count: 3
variant-label	one-hybrid fitness for binding parS DNA
KTEC	≤ 0.2
RTTM	0.316
GLVV	≤ 0.2

Supply recorded one-hybrid fitness for binding parS DNA for `MREY` here.
≤ 0.2

Supply recorded one-hybrid fitness for binding parS DNA for `RMYD` here.
≤ 0.2

Supply recorded one-hybrid fitness for binding parS DNA for `SILM` here.
≤ 0.2

Supply recorded one-hybrid fitness for binding parS DNA for `ICDS` here.
≤ 0.2

Supply recorded one-hybrid fitness for binding parS DNA for `YFLW` here.
≤ 0.2
